biological target: "5-HT1 -like" receptor (Canis lupus familiaris, UniProt P79250); construct: dog isolated saphenous vein strip; from tissue; host or cells: dog isolated saphenous vein strip; assay: contraction of dog isolated saphenous vein strip (in vitro "5-HT1 -like" receptor agonist activity); format: cell-based; details: ratio to 5-HT
Sequence (P79250 whole entry): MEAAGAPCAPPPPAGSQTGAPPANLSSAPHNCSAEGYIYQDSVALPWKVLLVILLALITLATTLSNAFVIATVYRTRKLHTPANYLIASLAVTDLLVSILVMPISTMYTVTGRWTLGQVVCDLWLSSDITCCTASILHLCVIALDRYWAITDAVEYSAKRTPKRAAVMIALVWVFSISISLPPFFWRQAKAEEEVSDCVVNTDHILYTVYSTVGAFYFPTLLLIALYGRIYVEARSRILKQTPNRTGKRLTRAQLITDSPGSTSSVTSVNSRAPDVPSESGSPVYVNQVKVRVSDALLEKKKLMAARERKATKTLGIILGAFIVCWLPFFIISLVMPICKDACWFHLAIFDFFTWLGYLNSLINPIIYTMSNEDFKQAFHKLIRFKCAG
Measurement Name: RELATIVE POTENCY EC50 (compound) / EC50 (5-HT)
Lab note: record just the number, no unit beside it.

In the examples that follow, each entry is paired with its recorded RELATIVE POTENCY EC50 (compound) / EC50 (5-HT).
INSERT INTO measurements (compound, tested_target, test_value) VALUES
  ('OC1(CCc2ccc3[nH]cc(C4CCNC4)c3c2)CCCC1 (stereo not shown) [Example 109]', '"5-HT1 -like" receptor (Canis lupus familiaris, UniProt P79250)', 8.5),
  ('CC(O)(CCc1ccc2[nH]cc(C[C@H]3CCCN3)c2c1)C(F)(F)F (stereo partly shown) [Example 95]', '"5-HT1 -like" receptor (Canis lupus familiaris, UniProt P79250)', 4.0),
  ('CC(=O)CCc1ccc2[nH]cc(C[C@H]3CCCN3)c2c1 [Example 37]', '"5-HT1 -like" receptor (Canis lupus familiaris, UniProt P79250)', 1.3);

Query: State, in one line, measured RELATIVE POTENCY EC50 (compound) / EC50 (5-HT) of CC(C)(O)CCc1ccc2[nH]cc(C[C@H]3CCCN3CCc3ccncc3)c2c1 [Example 30]
Result: 7.2

Query: Name the recorded RELATIVE POTENCY EC50 (compound) / EC50 (5-HT) of the item CN1CCC[C@@H]1Cc1c[nH]c2ccc(C=CC(C)(C)O)cc12 [Example 1] in your answer.
Result: 7.7

Query: Please indicate RELATIVE POTENCY EC50 (compound) / EC50 (5-HT) recorded for CC(O)CCc1ccc2[nH]cc(C3CCN(C)CC3)c2c1 (stereo not shown) [Example 43]
Result: 8.0

Query: Output measured RELATIVE POTENCY EC50 (compound) / EC50 (5-HT) for this item: CC(C)(O)CCc1ccc2[nH]cc(C[C@H]3CCCN3CC3CC3)c2c1 [Example 25]
Result: 6.4

Query: Fill in RELATIVE POTENCY EC50 (compound) / EC50 (5-HT) for record CC(C)(O)CCc1ccc2[nH]cc(C[C@H]3CCCN3)c2c1 [Example 29]
Result: 9.0

Query: Kindly indicate its recorded RELATIVE POTENCY EC50 (compound) / EC50 (5-HT). Item: CC(C)(O)CCc1ccc2[nH]cc(CCN)c2c1 [Example 48]
Result: 3.2

Query: Give RELATIVE POTENCY EC50 (compound) / EC50 (5-HT) for CN(C)C(=O)CCN1CCC[C@@H]1Cc1c[nH]c2ccc(CCC3(O)CCOC3)cc12 (stereo partly shown) [Example 101]
Result: 10.0

Hello, the source for this data is patent US5607960A, in case you need it.
